Tested on: SNB-19 CNS
assayOverview: NCI-60 one-dose screen, 48 h (100 = growth as untreated, 0 = no growth, -100 = all killed)
experimentalParameters: 10 µM unless noted
This is part of a sample that, as a whole, favours compounds with a hit. Of some 83,000 tested, about 20% had one in any assay.
Kindly state growth for each of the entries shown.
One number for each entry, in %.

Please review the following examples before continuing.
[
  {
    "molecule": "CCOC(=O)NNc1cccc(Cl)c1",
    "readoutUnit": "%",
    "growth": 98
  },
  {
    "molecule": "O=C(C=P(c1ccccc1)(c1ccccc1)c1ccccc1)CCl",
    "readoutUnit": "%",
    "growth": 69.1
  },
  {
    "molecule": "Cc1cccc(C(=O)O)n1",
    "readoutUnit": "%",
    "growth": 97.6
  },
  {
    "molecule": "CNCc1cccc2c1OCCOCCOCCC(C)S(=O)(=O)c1ccc(cc1)-c1cnc(N)c(n1)C(=O)N2 (stereo unspecified)",
    "readoutUnit": "%",
    "growth": 53.8
  },
  {
    "molecule": "COc1ccc(Nc2ncnc3c2sc2nc(C)cc(C)c23)cc1",
    "readoutUnit": "%",
    "growth": 99.2
  }
]

Here is another molecule to look at.
Consider the molecule O=C1OCC2=C1C(c1cccc(Br)c1)c1cc3c(cc1N2CCO)OCCO3 (stereo unspecified) and give its measured growth.
31.6

* * *

Test system: M14 melanoma
assayOverview: NCI-60 one-dose screen, 48 h (100 = growth as untreated, 0 = no growth, -100 = all killed)
experimentalParameters: 10 µM unless noted
This is part of a sample that, as a whole, favours compounds with a hit. Of some 83,000 tested, about 20% had one in any assay.
So I've got a bunch of compounds here, and I need their growth values.
Numbers only, in %.

For orientation, consider the following solved cases.
[
  {
    "compound": "Cc1ccc(O)c(Cc2ccccc2)c1",
    "growth (%)": 101
  },
  {
    "compound": "CCN(CC)CCCC(C)Nc1cnc(C(=O)Nc2cccc3ccc(OC)nc23)cn1 (stereo unspecified)",
    "growth (%)": -75.6
  },
  {
    "compound": "Fc1ccc(-c2ccnc3nc(-c4ccncc4)nn23)cc1",
    "growth (%)": 107
  },
  {
    "compound": "COc1ccc(CCN2COc3c([C@@H](C)CCC=C(C)C)ccc(C)c3C2)cc1OC",
    "growth (%)": 11.5
  },
  {
    "compound": "NNC(=O)Cc1ccccc1",
    "growth (%)": 74.5
  }
]

Next:
Request: growth, test system M14 melanoma, entry O=Cc1ccc2nc(C(Cl)(Cl)Cl)ccc2c1
81.6

* * *

Tested on: EKVX NSCLC
assayOverview: NCI-60 one-dose screen, 48 h (100 = growth as untreated, 0 = no growth, -100 = all killed)
experimentalParameters: 10 µM unless noted
Compounds without any hit were thinned out: in the full panel of roughly 83,000, 20% have a hit.
readoutKind: growth (%)
One number for each entry, in %.

Example entries and their recorded answers appear below.
[
  {
    "compound": "CNCc1ccccc1CN(CC(=O)Nc1ccc2c(c1)CC1(C2)C(=O)Nc2ncccc21)C(=O)C(C)(C)C (stereo not drawn)",
    "growth, %": 100
  },
  {
    "compound": "N#Cc1ccc(NC(=O)Nc2nc3ccc(OC(F)(F)F)cc3s2)cc1",
    "growth, %": -6.94
  },
  {
    "compound": "Cc1cc(NC(=O)c2ccc(N)cc2)ccc1N=Nc1ccc2cc(S(=O)(=O)O)cc(S(=O)(=O)O)c2c1",
    "growth, %": 99.9
  },
  {
    "compound": "COc1ccc(-n2nc(C(=O)NCC(=O)Nc3nc4cc(OC)ccc4s3)c3ccccc3c2=O)cc1",
    "growth, %": 30.4
  },
  {
    "compound": "Oc1ccc(-c2cnc(-c3ccccc3)[nH]2)c(O)c1",
    "growth, %": 107
  },
  {
    "compound": "COc1ccc(/C(=C\\c2cc(OC)c(OC)c(OC)c2)C(=O)N2CCCNCC2)cc1",
    "growth, %": 104
  }
]

Required: growth, one value per compound below.
1. Cc1cc(C)c([O-])c(CN(C)CCN(C)Cc2cc(C)cc(C)c2[O-])c1.O=C([O-])c1cccc(C(=O)[O-])n1.[Ti+4]
2. C#CC[C@@H]1C[C@]2(C)[C@H]3CC=C4[C@H]5[C@@H](C)[C@H](C)CC[C@]5(C(=O)NCCCCN)CC[C@@]4(C)[C@]3(C)CC[C@H]2C(C)(C)[C@H]1OC(C)=O

1: 27.1; 2: 96

* * *

Give measured growth for each item. Keep answers brief.
Test system: HCT-15 colon
assayOverview: NCI-60 one-dose screen, 48 h (100 = growth as untreated, 0 = no growth, -100 = all killed)
experimentalParameters: 10 µM unless noted
Protocol: Growth inhibition of the HCT-15 human tumor cell line is measured as a screen for anti-cancer activity. Cells are grown in 96 well plates and exposed to the test compound for 48 hours. Compounds are tested at a single concentration, which is 10^-5 M for most compounds. The reported endpoint is percent growth (GI% or GIPRCNT), where numbers from 0 - 100% represent growth inhibition, and numbers from -100% - 0 represent cell death. For example, a value of 40 represents 60% growth inhibition. […]
Compounds without any hit were thinned out: in the full panel of roughly 83,000, 20% have a hit. Active and inactive are the calls of the source. How the source made its calls: active means growth percent below 10; inactive means the rest.

Please review the entries below; each comes with its answer.
[
  {
    "molecule": "CCc1ccc(-c2ccc(NC3CCCCCC3)nn2)cc1S(N)(=O)=O",
    "growth": "96.4% (inactive)"
  },
  {
    "molecule": "CCCN(CCC)CC(O)COc1ccccc1C(=O)Nc1ccccc1 (stereo not given)",
    "growth": "72.8% (inactive)"
  },
  {
    "molecule": "CCOC(=O)c1ccc(N(CCC(=O)O)C(C)=O)cc1",
    "growth": "103% (inactive)"
  },
  {
    "molecule": "NC(=O)c1noc(C(=O)c2ccccc2)c1N",
    "growth": "89.4% (inactive)"
  },
  {
    "molecule": "COc1c(-c2cc(-c3ccc(C)o3)[nH]c(=O)n2)c(O)cc2occc12",
    "growth": "32.6% (inactive)"
  },
  {
    "molecule": "COc1ccc(Br)c2ccccc12",
    "growth": "110% (inactive)"
  },
  {
    "molecule": "Nc1nc(N)c2c(n1)NC(c1sc(Cl)nc1Cl)CC(c1ccc3c(c1)OCO3)=N2 (stereo not given)",
    "growth": "23.9% (inactive)"
  },
  {
    "molecule": "COc1cc(-c2nc(-c3nc4cc(C(=O)c5ccccc5)ccc4[nH]3)cc3c2[nH]c2ccccc23)cc(OC)c1OC",
    "growth": "83.1% (inactive)"
  },
  {
    "molecule": "COc1cc2c(cc1I)-c1c(cc(OC)c(OC)c1OC)CC[C@@H]2NC(C)=O",
    "growth": "9.35% (active)"
  },
  {
    "molecule": "Cc1cc(Cl)c2ccc(N(C)C)cc2n1",
    "growth": "94.9% (inactive)"
  }
]

# batch size: 5; output growth per entry
1. O=C(Cc1ccc(Nc2ccnc(C(F)(F)F)c2)cc1)N/N=C/c1ccccc1O
2. COc1cc2c(cc1OC)C(=O)C(Br)CC2 (stereo not given)
3. COc1ccc(C(=O)c2c(N)nc3n2CCCC3)cc1OC
4. COc1ccc(Sc2[nH]c(C=O)c3ccccc23)cc1
5. NC(=O)Nc1ccc2ncnc(Nc3cccc(O)c3)c2c1

1: 14.6% (inactive); 2: 17.5% (inactive); 3: 98.4% (inactive); 4: 63.1% (inactive); 5: 108% (inactive)

* * *

Tested on: NCI/ADR-RES ovarian
assayOverview: NCI-60 one-dose screen, 48 h (100 = growth as untreated, 0 = no growth, -100 = all killed)
experimentalParameters: 10 µM unless noted
Compounds without any hit were thinned out: in the full panel of roughly 83,000, 20% have a hit.
Decision: growth >= 30% yields Met, all other cases yield Not met.

Consider the worked cases shown below.
[
  {
    "compound": "Cc1cc(C)cc(NC(=O)Cn2nncc2CN2C(=O)CSC2=O)c1",
    "group": "Met"
  },
  {
    "compound": "COc1cc(NCCCCC(C)N)c2nccc(C)c2c1 (centres undefined)",
    "group": "Met"
  },
  {
    "compound": "CCC(C)C1NC(=O)c2nc(oc2-c2ccccc2)-c2csc(n2)-c2csc(n2)-c2nc(oc2C)-c2coc(n2)CNC(=O)C(C(C)CC)NC1=O (centres undefined)",
    "group": "Not met"
  },
  {
    "compound": "Nc1cc2nc3ccccc3oc-2cc1=O",
    "group": "Met"
  },
  {
    "compound": "C#CC[C@@H]1C[C@]2(C)[C@H]3CC[C@@H]4[C@H]5C(C(=C)C)CC[C@]5(C(=O)NCCCCN)CC[C@@]4(C)[C@]3(C)CC[C@H]2C(C)(C)[C@H]1OC(C)=O (some centres undefined)",
    "group": "Not met"
  },
  {
    "compound": "COC(=O)/C=C/c1cc(OC(C)=O)c2c(c1)[C@@H](C(=O)OC)[C@H](c1ccc(OC(C)=O)c(OC(C)=O)c1)O2",
    "group": "Not met"
  }
]

Please check the record Nc1n[nH]c2ccc([C@@H]3Nc4c(F)cc5[nH]ncc5c4[C@H]4C5CCC(C5)[C@@H]34)cc12 (some centres undefined) and state if its growth is at or above 30%.
Not met

Is it the case that CCCCCc1c(C)[nH]c(/C=C2\N=C(c3ccc[nH]3)C=C2CC)c1C has growth reaching or exceeding 30%?
Not met

Hi, just wondering whether CCCCCCCCCCCCCCCc1cc(O)ccc1[N+](=O)[O-] shows growth of 30% or higher.
Met

Could you tell me if the measured growth of O=C(OCc1ccc2c(Cl)cc(Cl)c(O)c2n1)c1cc2ccccc2[nH]1 reaches 30% or more?
Not met

Can CC(=O)c1c(C)nc(-c2cc(C)cc(Cl)c2)nc1-c1cccc(Oc2ccccc2)c1 be said to have growth at or above 30%?
Not met

Is it the case that N#Cc1ccc(NC(=O)Nc2nc3ccc(OC(F)(F)F)cc3s2)cc1 has growth reaching or exceeding 30%?
Not met

Is the recorded value of growth equal to or greater than 30% for this compound? O=C(CN1CCN(c2ccccc2)CC1)N1CCN(c2nnc(-c3ccc(Cl)cc3)c(-c3ccc(Cl)cc3)n2)CC1
Met

Item CCCCCCCCCCCCCCCCOc1ccc(S(=O)(=O)N(C)C)cc1[N+](=O)[O-] with growth of 30% or above?
Met

growth >= 30% for COc1ccc(/C=C(/C(=O)N2CCN(c3ccccc3)CC2)c2cc(OC)c(OC)c(OC)c2)cc1O ?
Not met
